- test.target: PDE1B (Homo sapiens (Human))
- Sequence (Q01064 whole entry): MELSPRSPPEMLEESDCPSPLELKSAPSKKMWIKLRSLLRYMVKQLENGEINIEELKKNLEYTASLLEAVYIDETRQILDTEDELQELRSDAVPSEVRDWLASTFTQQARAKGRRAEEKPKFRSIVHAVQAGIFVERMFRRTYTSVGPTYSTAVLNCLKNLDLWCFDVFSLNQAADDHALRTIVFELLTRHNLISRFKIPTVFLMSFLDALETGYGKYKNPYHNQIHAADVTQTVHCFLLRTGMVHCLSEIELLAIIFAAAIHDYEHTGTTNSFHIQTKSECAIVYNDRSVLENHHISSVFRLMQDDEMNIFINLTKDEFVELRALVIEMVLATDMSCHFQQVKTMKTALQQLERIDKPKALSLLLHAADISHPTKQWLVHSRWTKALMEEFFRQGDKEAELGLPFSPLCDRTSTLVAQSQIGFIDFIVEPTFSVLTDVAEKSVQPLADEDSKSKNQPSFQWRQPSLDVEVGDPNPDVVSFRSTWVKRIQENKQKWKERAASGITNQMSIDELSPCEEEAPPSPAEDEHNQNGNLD
- protocol.notes: PDE1 inhibition assay (PDE1B)
- Type: biochemical
- reported.conditions: 15 nM tritium labelled cAMP, 1 hr at room temperature, SPA beads; read-out: PDE1B, IC50
Class boundaries, taken from values of IC50, are as follows: interval 1: < 2 nM; interval 2: ≥ 2 nM and < 8 nM; interval 3: ≥ 8 nM

Answered examples (6):
> print(dat)
                                 smiles.str  classification
1  CCOc1ncccc1-c1cc(NCc2cnn(C)c2)c2c(n1)c(C)nn2CC      interval 2
2  CCOc1ncccc1-c1cc(NCc2noc(C)n2)c2c(n1)c(C)nn2C(C)C      interval 1
3  CCOc1ncccc1-c1cc(NCc2cccnc2C(F)F)c2c(n1)c(C)nn2C(C)C      interval 2
4  CCOc1ncccc1-c1cc(NCc2cc(OC)ccn2)c2c(n1)c(C)nn2C(C)C      interval 1
5  CCOc1ncccc1-c1cc(NCc2ccccc2C(F)(F)F)c2c(n1)c(C)nn2C(C)C      interval 3
6  CCOc1ncccc1-c1cc(NCc2ncon2)c2c(n1)c(C)nn2C(C)C      interval 1

Exercise: Hey, which category is COc1ncccc1CNc1cc(-c2cccnc2OC2CC2)nc2c(C)nn(C(C)C)c12 in, do you know?
Key: interval 1

Exercise: Hey, which category is Cc1nn(C(C)C)c2c(NCc3cnn(C)c3)cc(-c3nncn3C)nc12 in, do you know?
Key: interval 3

Exercise: Hey, which category is CCOc1ncccc1-c1cc(NCc2ccc(F)nc2)c2c(n1)c(C)nn2C(C)C in, do you know?
Key: interval 2

Exercise: Hey, which category is CCOc1ncccc1-c1cc(NCc2cnc(C)s2)c2c(n1)c(C)nn2C(C)C in, do you know?
Key: interval 1

Exercise: Hey, which category is CCOc1ncccc1-c1cc(NCc2cnn(C)c2)c2c(n1)c(C)nn2C1COC1 in, do you know?
Key: interval 2

====

- test.target: UniProt Q14123
- protocol.notes: biochemical
- Format: biochemical
- reported.conditions: 15 nM tritium labelled cAMP, 1 hr at room temperature, SPA beads
measurement.label: IC50 (nM)
All answers are understood in nM, so give the number only.

> print(dat)
                                 smiles.str  unit.text  measured.value
1  CCOc1ncccc1-c1cc(NCc2cc(C)no2)c2c(n1)c(C)nn2C(C)C         nM              14
2  CCOc1ncccc1-c1cc(NCc2ccnc(C)c2)c2c(n1)c(C)nn2C(C)C         nM              17

Please fill in: IC50 reported for CCOc1ncccc1-c1cc(NCc2ncc(F)cn2)c2c(n1)c(C)nn2C(C)C = 38

Please fill in: IC50 reported for COc1ccc(CNc2cc(-c3cccnc3OC)nc3c(C)nn(C(C)C)c23)cn1 = 5.3

====

- test.target: PDE1C (Homo sapiens (Human))
- Sequence (Q14123 whole entry): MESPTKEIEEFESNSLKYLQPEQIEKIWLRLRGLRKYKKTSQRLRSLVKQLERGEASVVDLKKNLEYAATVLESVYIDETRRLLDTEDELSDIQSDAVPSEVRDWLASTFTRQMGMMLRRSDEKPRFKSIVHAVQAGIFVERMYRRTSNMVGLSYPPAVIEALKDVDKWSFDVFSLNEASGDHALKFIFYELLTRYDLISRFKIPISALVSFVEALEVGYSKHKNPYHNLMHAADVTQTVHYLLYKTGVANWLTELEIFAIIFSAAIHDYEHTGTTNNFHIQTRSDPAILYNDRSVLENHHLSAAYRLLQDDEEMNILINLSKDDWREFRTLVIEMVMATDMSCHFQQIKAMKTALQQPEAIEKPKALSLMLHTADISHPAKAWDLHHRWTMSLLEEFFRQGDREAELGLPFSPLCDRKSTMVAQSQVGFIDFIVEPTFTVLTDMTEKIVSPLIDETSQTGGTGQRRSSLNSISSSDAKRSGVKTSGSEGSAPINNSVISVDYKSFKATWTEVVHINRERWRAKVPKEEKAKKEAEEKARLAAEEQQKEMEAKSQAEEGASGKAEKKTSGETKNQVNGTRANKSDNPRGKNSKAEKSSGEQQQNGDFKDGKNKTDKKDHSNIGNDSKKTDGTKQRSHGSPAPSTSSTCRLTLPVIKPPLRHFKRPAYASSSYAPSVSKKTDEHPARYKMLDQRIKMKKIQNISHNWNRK
- protocol.notes: biochemical
- Format: biochemical
- reported.conditions: 15 nM tritium labelled cAMP, 1 hr at room temperature, SPA beads
measurement.label: pIC50
// field semantics: pIC50 = negative decimal log of concentration (mol/L)

> print(dat)
                                 smiles.str                   test.target  measured.value
1  Cc1nn(C(C)C)c2c(NCc3cnn(C)c3)cc(-n3cncn3)nc12  PDE1C (Homo sapiens (Human))            7.04

Please fill in: pIC50 reported for Cc1nn(C(C)C)c2c(NCc3cnn(C)c3)cc(N3CCCC3=O)nc12 = 7.31

Please fill in: pIC50 reported for CCOc1ncccc1-c1cc(NCc2nccc(OC)n2)c2c(n1)c(C)nn2C(C)C = 7.72

Please fill in: pIC50 reported for CCOc1ncccc1-c1cc(NCc2cc(C)no2)c2c(cnn2C(C)C)n1 = 6.74

These data points were gathered from patent US10034861B2.
